Tested on: C. albicans SC5314
assay_procedure: AST broth microdilution, high cell density planktonic mode
Assay type: cell-based, Candida albicans
test_context: Candida albicans, SC5314, 24 h, 50% MIC, planktonic mode, 1 × 10^7 cells/mL, 24 h; read-out: Minimum inhibitory concentration (MIC)
value_kind: MIC (µM)
Provide only the numeric value, understood in µM.

Provide value of MIC for this record tested with C. albicans SC5314: `CC(C)(C)c1ccc(S(=O)(=O)/C=C/C#N)cc1`
3.9

Provide value of MIC for this record tested with C. albicans SC5314: `Cc1ccc(S(=O)(=O)/C=C/C#N)cc1`
7.8

Provide value of MIC for this record tested with C. albicans SC5314: `Cc1c2ccncc2c(C)c2c1[nH]c1ccccc12`
7.8
